target: PKC delta kinase (Homo sapiens); experiment: PKC delta kinase inhibition, coupled-enzyme (NADH absorbance) assay, Ki; type: biochemical; settings: 150 μM ATP, 46 nM PKC delta kinase, 30° C.; read-out: Ki PKC delta
REPORTED ENDPOINT: Ki

Answer for every listed entry: what is its Ki? The entries follow.
1. FC(F)(F)c1ccc(N2CCNC(c3ccccc3)C2)nc1-c1n[nH]c2ncccc12 (centres unmarked) [Compound 5]
2. Cc1cc(N2CCN[C@@H](CC(C)C)C2)nc(-c2n[nH]c3ncccc23)c1Cl [Compound 58]

Result:
["> 2000 nM", "< 2800 nM"]

----------
biological target: PKC delta kinase (Homo sapiens); assay: PKC delta kinase inhibition, coupled-enzyme (NADH absorbance) assay, Ki; type: biochemical; details: 150 μM ATP, 46 nM PKC delta kinase, 30° C.; read-out: Ki PKC delta
Please provide measured Ki for the entries that follow.

Examples with their reported Ki follow.
COMPOUND: CC(C)(C)CC(N)C1CCCN(c2ccc(F)c(-c3n[nH]c4ncccc34)n2)C1 (centres unmarked) [Compound 318]
Ki: < 2800 nM
--
COMPOUND: CC(C)CC1CN(c2ccc(C(F)(F)F)c(-c3n[nH]c4ncccc34)n2)CCC1CCN (centres unmarked)
Ki: > 1250 nM
--
COMPOUND: CC1(C)CN(c2cccc(-c3n[nH]c4ncccc34)n2)CCN1
Ki: < 500 nM
--
COMPOUND: CC(C)C[C@]1(O)CN(c2ccc(C(F)(F)F)c(-c3n[nH]c4ncccc34)n2)CC[C@@H]1N
Ki: < 500 nM
--
COMPOUND: c1cc(-c2n[nH]c3ncccc23)nc(N2CCNC(C3CC3)C2)c1 (centres unmarked)
Ki: < 500 nM
--
COMPOUND: CN(C)C(=O)CC1CN(c2ccc(C(F)(F)F)c(-c3n[nH]c4ncccc34)n2)CCN1 (centres unmarked)
Ki: > 1250 nM
--
COMPOUND: CCC1(CC)CN(c2ccc(C(F)(F)F)c(-c3n[nH]c4ncccc34)n2)CCC1N (centres unmarked)
Ki: < 500 nM

Now consider a different compound.
Query: I am curious: what Ki value has been reported for CC(C)CC1(C)CN(c2nc(-c3n[nH]c4ncccc34)ccc2F)CCN1 (centres unmarked) ?
Result: < 500 nM

----------
target: PKC alpha kinase (Homo sapiens, UniProt P17252)
REPORTED ENDPOINT: Ki

Solved entries:
COMPOUND: CC(C)C[C@@H]1C[C@@H](N)CN(c2ccc(C(F)(F)F)c(-c3n[nH]c4ncccc34)n2)C1 [Compound 365]
Ki: > 1250 nM
//
COMPOUND: Cc1ccc(C2CN(c3ccc(C(F)(F)F)c(-c4n[nH]c5ncccc45)n3)CCN2)cc1 (centres unmarked) [Compound 133]
Ki: > 1250 nM
//
COMPOUND: CC(N)[C@H]1CCCN(c2ccc(F)c(-c3n[nH]c4ncccc34)n2)C1 (some centres unmarked) [Compound 262]
Ki: > 1250 nM
//
COMPOUND: CCCC1CN(c2cccc(-c3n[nH]c4ncccc34)n2)CCN1 (centres unmarked) [Compound 59]
Ki: < 2800 nM
//
COMPOUND: NC(=O)C1CN(c2ccc(C(F)(F)F)c(-c3n[nH]c4ncccc34)n2)CCN1 (centres unmarked) [Compound 213]
Ki: > 1250 nM

Please go through the list and note Ki for each compound.
1. CC(C)C1(C)OC(=O)N2CCN(c3ccc(F)c(-c4n[nH]c5ncccc45)n3)CC21 (centres unmarked) [Compound 439]
2. Fc1ccc(C2CCNCC2)nc1-c1n[nH]c2ncccc12 [Compound 440]
3. CC(C)CC1CN(c2ccc(C(F)(F)F)c(-c3n[nH]c4ncccc34)n2)CCC1CC#N (centres unmarked) [Compound 450]
4. OC1(C2CN(c3cccc(-c4n[nH]c5ncccc45)n3)CCN2)CC1 (centres unmarked) [Compound 186]
5. NC1CCN(c2ccc(C(F)(F)F)c(-c3n[nH]c4ncccc34)n2)CC1 [Compound 126]
6. OC1CCCN(c2ccc(C(F)(F)F)c(-c3n[nH]c4ncccc34)n2)C1 (centres unmarked) [Compound 423]
7. CC(C)(C)[C@H]1CN(c2ccc(Cl)c(-c3n[nH]c4ncccc34)n2)CCN1 [Compound 78]
8. CC(C)CC1CN(c2ccc(F)c(-c3n[nH]c4ncccc34)n2)CCC1CC#N (centres unmarked) [Compound 452]

Result:
1: > 1250 nM; 2: > 1250 nM; 3: > 1250 nM; 4: < 2800 nM; 5: > 1250 nM; 6: > 1250 nM; 7: > 1250 nM; 8: > 1250 nM

----------
molecular target: PKC delta kinase (Homo sapiens, UniProt Q05655); assay: PKC delta kinase inhibition, coupled-enzyme (NADH absorbance) assay, Ki; type: biochemical; settings: 150 μM ATP, 46 nM PKC delta kinase, 30° C.; read-out: Ki PKC delta
Sequence (Q05655 whole entry): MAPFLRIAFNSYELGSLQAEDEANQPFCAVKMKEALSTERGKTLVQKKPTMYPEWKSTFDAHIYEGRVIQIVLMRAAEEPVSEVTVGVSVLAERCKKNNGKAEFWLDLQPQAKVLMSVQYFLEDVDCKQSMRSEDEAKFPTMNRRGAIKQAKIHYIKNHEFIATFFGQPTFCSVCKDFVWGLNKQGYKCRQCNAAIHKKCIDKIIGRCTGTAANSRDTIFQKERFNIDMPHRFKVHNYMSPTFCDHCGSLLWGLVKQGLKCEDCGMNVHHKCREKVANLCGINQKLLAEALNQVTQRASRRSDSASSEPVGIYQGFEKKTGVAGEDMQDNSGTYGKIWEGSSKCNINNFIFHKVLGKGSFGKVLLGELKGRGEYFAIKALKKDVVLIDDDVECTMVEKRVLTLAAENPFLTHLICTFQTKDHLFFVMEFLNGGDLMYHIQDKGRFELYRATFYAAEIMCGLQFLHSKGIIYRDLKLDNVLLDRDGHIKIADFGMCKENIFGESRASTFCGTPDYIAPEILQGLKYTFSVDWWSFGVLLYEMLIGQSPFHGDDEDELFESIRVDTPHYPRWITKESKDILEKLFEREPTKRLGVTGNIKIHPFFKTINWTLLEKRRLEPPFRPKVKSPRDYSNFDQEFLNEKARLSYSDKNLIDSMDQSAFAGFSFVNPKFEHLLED
pKi: −log10 of the molar value.
REPORTED ENDPOINT: pKi

MOLECULE: CC(C)(F)C(C)(O)C1CN(c2ccc(F)c(-c3n[nH]c4ncccc34)n2)CCN1 (centres unmarked) [Compound 250]
pKi: > 6.30
//
MOLECULE: CC(C)C[C@H]1CN(c2cncc(-c3n[nH]c4ncccc34)n2)CCN1
pKi: > 6.30
//
MOLECULE: C[C@H]1CN(c2cccc(-c3n[nH]c4ncc(Cl)cc34)n2)CCN1
pKi: > 6.30

// batch mode: one pKi value per listed entry
1. CCC(N)C1(C(F)(F)F)CCN(c2ccc(F)c(-c3n[nH]c4ncccc34)n2)C1 (centres unmarked) [Compound 448]
2. CC(C)C(C)(O)C1CN(c2nc(-c3n[nH]c4ncccc34)ccc2F)CCN1 (centres unmarked) [Compound 375]
3. FC(F)(F)c1ccnc2[nH]nc(-c3cccc(N4CCNCC4)n3)c12
4. CC(C)C(C)(O)C1CN(c2ccc(F)c(-c3n[nH]c4ncccc34)n2)CCN1C (centres unmarked) [Compound 231]

Result:
> 5.55
> 7.30
< 5.90
> 6.30

Query: Data request, read-out pKi, for CCCC1CN(c2cccc(-c3n[nH]c4ncccc34)n2)CCN1 (centres unmarked)
Result: > 6.30

----------
target: PKC delta kinase (Homo sapiens, UniProt Q05655); assay: PKC delta kinase inhibition, coupled-enzyme (NADH absorbance) assay, Ki; format: biochemical; conditions: 150 μM ATP, 46 nM PKC delta kinase, 30° C.; read-out: Ki PKC delta
REPORTED ENDPOINT: Ki

Consider the following illustrative entries.
COMPOUND: CC(C)C[C@H]1CN(c2ccc(C(F)(F)F)c(-c3n[nH]c4ncccc34)n2)C[C@H](C)N1
MEAS VALUE: > 1.25 µM

COMPOUND: OCC1CN(c2cccc(-c3n[nH]c4ncccc34)n2)CCN1 (centres unmarked)
MEAS VALUE: < 0.5 µM

COMPOUND: CC(C)CC1(CN)CCN(c2ccc(F)c(-c3n[nH]c4ncccc34)n2)CC1
MEAS VALUE: > 1.25 µM

COMPOUND: NC(=O)CC1CN(c2ccc(C(F)(F)F)c(-c3n[nH]c4ncccc34)n2)CCN1 (centres unmarked)
MEAS VALUE: > 1.25 µM

COMPOUND: CC(O)(c1ccccc1)C1CN(c2ccc(F)c(-c3n[nH]c4ncccc34)n2)CCN1 (centres unmarked) [Compound 323]
MEAS VALUE: < 2.8 µM

For every listed record, write down its Ki.
1. CC(C)C1(C)OC(=O)N2CCN(c3ccc(F)c(-c4n[nH]c5ncccc45)n3)CC21 (centres unmarked)
2. N#CCCC1CN(c2ccc(C(F)(F)F)c(-c3n[nH]c4ncccc34)n2)CCC1O (centres unmarked)
3. CCCC1CN(c2ccc(Cl)c(-c3n[nH]c4ncccc34)n2)CCN1 (centres unmarked)

Result:
1. > 1.25 µM
2. > 1.25 µM
3. < 2.8 µM

----------
Kindly supply the reported Ki values for the records listed here.
target: PKC delta kinase (Homo sapiens, UniProt Q05655); experiment: PKC delta kinase inhibition, coupled-enzyme (NADH absorbance) assay, Ki; type: biochemical; conditions: 150 μM ATP, 46 nM PKC delta kinase, 30° C.; read-out: Ki PKC delta

Give Ki for each of the items listed below.
1. NC[C@H]1CCN(c2ccc(F)c(-c3n[nH]c4ncccc34)n2)C1
2. CS(=O)(=O)NCC1CCCN(c2ccc(F)c(-c3n[nH]c4ncccc34)n2)C1 (stereo not shown)
3. CC(F)(F)CC1CN(c2cccc(-c3n[nH]c4ncccc34)n2)CCN1 (stereo not shown)
4. CCC(C)(O)C1CN(c2cccc(-c3n[nH]c4ncccc34)n2)CCN1 (stereo not shown)

Result:
1. > 1250 nM
2. > 1250 nM
3. < 500 nM
4. < 500 nM

----------
Kindly supply the reported Ki values for the records listed here.
biological target: PKC delta kinase (Homo sapiens); assay: PKC delta kinase inhibition, coupled-enzyme (NADH absorbance) assay, Ki; format: biochemical; conditions: 150 μM ATP, 46 nM PKC delta kinase, 30° C.; read-out: Ki PKC delta

COMPOUND: CCNC(=O)C1CN(c2ccc(C(F)(F)F)c(-c3n[nH]c4ncccc34)n2)CCN1 (centres unmarked) [Compound 216]
Ki: > 1.25 µM
--
COMPOUND: CC(C)C[C@@H]1CN(c2ccc(F)c(-c3n[nH]c4ncccc34)n2)CCN1 [Compound 192]
Ki: < 2.8 µM
--
COMPOUND: CC(C)C(F)(F)C1CN(c2ccc(C(F)(F)F)c(-c3n[nH]c4ncccc34)n2)CCN1 (centres unmarked) [Compound 150]
Ki: > 1.25 µM
--
COMPOUND: C=Cc1ccc(N2CCN[C@@H](CC(C)C)C2)nc1-c1n[nH]c2ncccc12 [Compound 51]
Ki: > 2 µM
--
COMPOUND: NC(c1ccccc1)C1CCCN(c2ccc(F)c(-c3n[nH]c4ncccc34)n2)C1 (centres unmarked) [Compound 301]
Ki: > 1.25 µM

Go through the list and state Ki for each entry.
1. CC(C)CC1(CN)CCN(c2ccc(C(F)(F)F)c(-c3n[nH]c4ncccc34)n2)CC1 [Compound 466]
2. OC1(C2CN(c3cccc(-c4n[nH]c5ncccc45)n3)CCN2)COC1 (centres unmarked) [Compound 232]
3. CC(C)C[C@H]1CN(c2cccc(-c3n[nH]c4ncccc34)n2)CC[C@@H]1N [Compound 130]

Result:
1. > 1.25 µM
2. > 1.25 µM
3. < 0.5 µM
